Experiment: Solubility
Assay type: physicochemical
Conditions: read-out: Solubilité
METRIC_NAME: solubility (mM)

molecule="CC(=O)N(CC(O)CO)c1c(I)c(N(CC(O)CO)C(C)=O)c(I)c(N(CC(O)CO)C(C)=O)c1I (stereo not drawn) [Exemple 3]" metric_name=solubility value_measured=1000
molecule="COCC(=O)Nc1c(I)c(N(CC(O)CO)C(C)=O)c(I)c(N(CC(O)CO)C(C)=O)c1I (stereo not drawn) [Exemple 8]" metric_name=solubility value_measured=940
molecule="CC(=O)N(CC(O)CO)c1c(I)c(NC(=O)C(C)O)c(I)c(N(CC(O)CO)C(C)=O)c1I (stereo not drawn) [Exemple 9]" metric_name=solubility value_measured=1000
